Data credit: PubChem BioAssay (NCATS)

# Tested on: N140
# TEST_NAME: qHTS profiling for inhibitors of Plasmodium falciparum proliferation (AID 504749); note: nearly all actives have a fitted effect of over 60% in size
# RECORDED_CONDITIONS: P. falciparum in erythrocytes, SYBR Green DNA, 72 h; series mostly up to 28.7 µM
# Method: NIH National Institute of Allergy and Infectious Diseases [NIAID] NIH Chemical Genomics Center [NCGC] […] Because mature erythrocytes lack DNA, only Plasmodium-derived DNA is detected. NCGC Assay Protocol Summary: The SYBR Green viability assay was adapted from a method described previously (Plouffe et al., 2008). […] The following morning, fluorescence intensity at 485(14) nm excitation and 535(25) nm emission wavelengths was measured on an EnVision (Perkin Elmer) plate reader. […]
Records with an inconclusive call do not appear. Calls of active or inactive are those of the source. Calls come from the whole dose curve; as a rule, active = well fitted inhibition curve with a large enough effect; inconclusive = small, poorly fitted or top-dose-only effect; inactive = flat fitted curve, though single readings scatter.
Classes used: active, inactive

| MOLECULE | CLASS_ASSIGNMENT |
| --- | --- |
| COc1cc(NS(=O)(=O)c2ccc(N)cc2)nc(OC)n1 | inactive |
| CC(C)Cn1cnc2c(N)nc3ccccc3c21 | inactive |
| COc1ccc2cc3[n+](cc2c1OC)CCc1cc2c(cc1-3)OCO2 | active |
| O=S(=O)(O)CCS | inactive |
| COc1ncnc(NS(=O)(=O)c2ccc(N)cc2)c1OC | inactive |
| COc1cc(NCc2ccc3nc(N)nc(N)c3c2C)cc(OC)c1OC | active |
| CNCC[C@H](Oc1cccc2ccccc12)c1cccs1 | active |
